# study.system: human bitter receptor TAS2R39 (Homo sapiens, UniProt P59534)
# Construct: expressed in transfected cells; host or cells: HEK293 (tetracycline/doxycycline-inducible expression; blasticidin, geneticin and hygromycin selection)
# Sequence (P59534 1-338): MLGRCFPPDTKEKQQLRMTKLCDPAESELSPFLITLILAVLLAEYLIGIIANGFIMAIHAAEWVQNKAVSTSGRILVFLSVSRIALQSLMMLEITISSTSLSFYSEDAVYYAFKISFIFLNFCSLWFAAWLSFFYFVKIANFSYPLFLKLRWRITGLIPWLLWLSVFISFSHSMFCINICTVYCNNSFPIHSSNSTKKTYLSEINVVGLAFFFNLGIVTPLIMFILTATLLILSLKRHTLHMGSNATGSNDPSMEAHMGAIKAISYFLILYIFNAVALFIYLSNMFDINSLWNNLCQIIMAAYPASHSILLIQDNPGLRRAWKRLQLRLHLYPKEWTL
# test.method.notes: Inhibition of ECG stimulation of TAS2R39, intracellular calcium (Fluo4-AM fluorescence) assay
# Format: cell-based
# measurement.conditions: HEK293 cells expressing TAS2R39; test solution 0.5 mM ECG and 10 mM test compound in Tyrodes buffer; percentage reduction of ΔF vs ECG alone
Task for the reader: assign each of the following compounds its reported % inhibition of TAS2R39.
Answers are plain numbers, in %.

O=C(O)/C=C/c1ccc(O)c(O)c1 [3,4-dihydroxycinnamic acid]
30

Each compound below has a reported value. Please supply its % inhibition of TAS2R39.
1. COc1cc(/C=C/C(=O)O)ccc1O [3-methoxy-4-hydroxycinnamic acid, 3-methoxy-4-hydroxycinnamic acid]
2. O=C(O)CCCc1ccccc1
3. COc1cccc(/C=C/C(=O)O)c1 [3-methoxycinnamic acid, reference compound]
4. COc1ccc(CCC(=O)O)cc1
5. O=C(O)/C=C/c1ccccc1
6. COc1cc(CCC(=O)O)ccc1O

65
40
0
40
40
35

Each compound below has a reported value. Please supply its % inhibition of TAS2R39.
1. O=C(O)Cc1ccc(O)cc1 [4-hydroxyphenylacetic acid, reference compound]
2. O=C(O)c1ccc(O)cc1 [4-hydroxybenzoic acid, reference compound]

[20, 25]
